# PROTOCOL DETAILS: gradient 5% acetonitrile 3 min, to 50% in 2 min, to 85% in 15 min, held 3 min, 100 µL/min
# CONDITION DETAILS: column: Zorbax Extend-C18 2.1 x 50 mm; eluents: water / acetonitrile, 0.1% formic acid
ENDPOINT NAME: RP-LC retention time
Kindly write the number and append the unit.

[in] Find the recorded RP-LC retention time belonging to "COc1ccc(Cl)c2c(=O)c3c([nH]c12)CCN(CC(=O)Nc1ccc(C)c(Cl)c1)C3" and report it.
[out] 762 s

[in] Please answer likewise for "CN(CC#N)C(=O)c1cc2c(Cl)ccc3c2n1CCO3"
[out] 865 s

[in] Please answer likewise for "O=C(/C=C/c1cccnc1)/C=C/c1cccnc1"
[out] 635 s

[in] Please answer likewise for "COc1cccc(CNC(=O)c2ccc3c(c2)nc2n3CCN(Cc3ccccc3)C2=O)c1"
[out] 777 s

[in] Please answer likewise for "CCCc1noc(-c2ccnc(-n3cnc(C(=O)N4CCSCC4)c3)c2)n1"
[out] 873 s

Reference source: the METLIN SMRT retention time set (Domingo-Almenara et al. 2019)
